Test system: Staphylococcus aureus
Test: Antibacterial activity against methicillin-resistant Staphylococcus aureus CCARM 3095 incubated for 24 hrs by CLSI based broth microdilution method
Type: functional
measurement_kind: MIC (µM)
API: value field is a number in µM; no unit string.

| substance | MIC / µM |
| --- | --- |
| H-GVFRLKKWIKKVIKKWGK-NH2 | 8 |
| H-GVFRLKKWIRKVIRRWGR-NH2 | 8 |

**Q:** Give the value of MIC reported for the following: H-GVFRLKKWIQKVIKQWGK-NH2
**A:** 8

**Q:** Give reported MIC value for H-GVFRLKKWLKKVKKWGK-NH2
**A:** 8

**Q:** For the substance H-GVFRLKKWIQKVIRQWGR-NH2 , give its measured MIC value.
**A:** 4
